The entries below come with measured pIC50 values attached.
Molecular target: recombinant human IL-17AA (Homo sapiens, UniProt Q16552)
Sequence (Q16552 24-155): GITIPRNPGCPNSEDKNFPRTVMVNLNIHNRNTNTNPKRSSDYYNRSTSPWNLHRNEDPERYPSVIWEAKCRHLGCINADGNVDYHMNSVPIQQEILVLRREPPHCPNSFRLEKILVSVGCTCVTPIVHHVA
Assay: IL-6 release from NHDF cells, IL-17AA plus TNF-α stimulation
Assay type: cell-based
Conditions: IL17AA + TNF IC50 IL-6, NHDF cells, IL-17AA 30 pM plus TNF-α 6 pM, 24 hours, IL-6 by ELISA
Reminder that pIC50 is minus the log10 of a molar concentration.

// solved cases for pIC50 follow
CCn1nccc1C(=O)NC(C(=O)Nc1ccc(-c2c(C(F)(F)F)cc[n+]([O-])c2C)cc1)C1CC2CC2C1 (single isomer, unassigned) : 7.60
Cc1cc[n+]([O-])c(C)c1-c1ccc(NC(=O)C(NC(=O)c2ccnn2C)C2CCC(C(F)(F)F)CC2)cc1 (stereo not drawn) : 7.32

// moving on: another record for pIC50
Q) I'd like to know its pIC50. The compound in question is Cc1cc[n+]([O-])c(C)c1-c1ccc(NC(=O)C(NC(=O)c2ccnn2C)C2CCC(C)CC2)cc1F (stereo not drawn)
A) 8.10

Value source: patent US12600728B2
